- System: sugar beet (Beta vulgaris)
- MEASUREMENT_PROTOCOL: Test B pre-/postemergence
- Format: in vivo
- EXPERIMENTAL_PARAMETERS: Rate 250 g/ha, Postemergence
PARAMETER: Plant response rating, Sugarbeets
I only need the number, thanks.

Below, each entry is followed by its recorded Plant response rating, Sugarbeets result.
| QUERY_SMILES | Plant response rating, Sugarbeets |
| --- | --- |
| CCc1cnc(-n2ccc(C(F)(F)F)n2)nc1Cc1cccc(OC(F)(F)F)c1 | 9 |
| Cc1cnc(-n2cnc(C(F)(F)F)n2)nc1Cc1cccc(C(F)(F)F)c1 | 10 |
| Cc1cnc(-c2ccc(OC(F)(F)F)cc2)nc1Cc1cccc(C(F)(F)F)c1 | 9 |
| Cc1cnc(-c2cccc(C(F)(F)F)c2)nc1Cc1cccc(C#N)c1 | 10 |
| Cc1cnc(-c2ccc(F)cc2F)nc1Cc1cccc(C#N)c1 | 9 |
| Cc1cnc(-c2ccc(F)c(Cl)c2)nc1Cc1cccc(C#N)c1 | 10 |
| Cc1cnc(-n2ccc(C(F)(F)F)n2)nc1C(=O)c1ccc(C(F)(F)F)cc1 | 8 |
| Cc1cnc(-n2ccc(C(F)(F)F)n2)nc1C(=O)c1cccc(OC(F)(F)F)c1 | 10 |
| Cc1cnc(-n2ccc(C(F)(F)F)n2)nc1Cn1ccc(C(F)(F)F)n1 | 10 |
| Cc1cnc(-c2ccc(Cl)cc2F)nc1Cc1cccc(C(F)(F)F)c1 | 10 |

Item: Cc1cnc(-c2ccc(Cl)c(Cl)c2)nc1Cc1cccc(C(F)(F)F)c1 | Plant response rating, Sugarbeets: 10

Item: Cc1cnc(-c2ccc(C(F)(F)F)cc2)nc1Cn1cc(Br)cn1 | Plant response rating, Sugarbeets: 9

Item: COc1cnc(-n2ccc(C(F)(F)F)n2)nc1Cc1cccc(C(F)(F)F)c1 | Plant response rating, Sugarbeets: 0

Item: CCc1cnc(-n2ccc(C(F)(F)F)n2)nc1Cc1cccc(C(F)(F)F)c1 | Plant response rating, Sugarbeets: 10

Item: Cc1cnc(-c2ccc(F)cc2F)nc1Cc1cccc(C(F)(F)F)c1 | Plant response rating, Sugarbeets: 10

Cited source for all entries: patent US6525001B1
